Values compiled from ChEMBL document CHEMBL3259713.

# System: Cutibacterium acnes
# method.notes: Antibacterial activity against Propionibacterium acnes assessed as growth inhibition after 24 hrs by CLSI M11-A8 broth microdilution method
# Type: functional
measurement.label: MIC (µg/mL)

Field: example entries. Status: answers known.
CCOC(=O)c1csc(-c2ccc3c(n2)-c2csc(n2)-c2csc(n2)[C@@H]2CCCN2C(=O)[C@H](Cc2ccc(O)cc2)NC(=O)C2CSC(=N2)[C@H](Cc2ccccc2)NC(=O)c2csc(n2)[C@H](CC(N)=O)NC(=O)c2nc-3oc2C)n1 (some centres undefined) = 4
C=C(NC(=O)[C@@H]1CCCN1C(=O)[C@H](C)NC(=O)C(=C)NC(=O)c1csc(-c2ccc3c(n2)-c2csc(n2)-c2csc(n2)[C@@H]2CCCN2C(=O)[C@H](Cc2ccc(O)cc2)NC(=O)C2CSC(=N2)[C@H](Cc2ccccc2)NC(=O)c2csc(n2)[C@H](CC(N)=O)NC(=O)c2nc-3oc2C)n1)C(N)=O (some centres undefined) = 0.5
C=C(NC(=O)c1csc(-c2ccc3c(n2)-c2csc(n2)-c2csc(n2)[C@@H]2CCCN2C(=O)[C@H](Cc2ccc(O)cc2)NC(=O)C2CSC(=N2)[C@H](Cc2ccccc2)NC(=O)c2csc(n2)[C@H](CC(N)=O)NC(=O)c2nc-3oc2C)n1)C(=O)N[C@@H](C)C(=O)N1CCC[C@H]1C(N)=O (some centres undefined) = 0.125

[I] Cc1oc2nc1C(=O)N[C@@H](CC(N)=O)c1nc(cs1)C(=O)N[C@@H](Cc1ccccc1)c1nc(cs1)C(=O)N[C@@H](Cc1ccc(O)cc1)C(=O)N1CCC[C@H]1c1nc(cs1)-c1nc(cs1)-c1nc(-c3nc(C(=O)N[C@H]4CC[C@H](C(=O)O)CC4)cs3)ccc1-2
[II] Cc1oc2nc1C(=O)N[C@@H](CC(N)=O)c1nc(cs1)C(=O)N[C@@H](Cc1ccccc1)c1nc(cs1)C(=O)N[C@@H](Cc1ccc(O)cc1)C(=O)N1CCC[C@H]1c1nc(cs1)-c1nc(cs1)-c1nc(-c3nc(C(=O)O)cs3)ccc1-2
[III] CCOC(=O)c1csc(-c2ccc3c(n2)-c2csc(n2)-c2csc(n2)[C@@H]2CCCN2C(=O)[C@H](Cc2ccc(O)cc2)NC(=O)c2csc(n2)[C@H](Cc2ccccc2)NC(=O)c2csc(n2)[C@H](CC(N)=O)NC(=O)c2nc-3oc2C)n1
[IV] Cc1oc2nc1C(=O)N[C@@H](CC(N)=O)c1nc(cs1)C(=O)N[C@@H](Cc1ccccc1)c1nc(cs1)C(=O)N[C@@H](Cc1ccc(O)cc1)C(=O)N1CCC[C@H]1c1nc(cs1)-c1nc(cs1)-c1nc(-c3nc(C(N)=O)cs3)ccc1-2
Query string: With regard to MIC, arrange the entries in ascending order, please. Write the labels out in the order the request specifies.
Result string: I, II, III, IV
(I: 0.06 µg/mL, II: 2 µg/mL, III: 4 µg/mL, IV: 8 µg/mL)
